# subjectOfTest: Vascular endothelial growth factor receptor 2 (Homo sapiens, UniProt P35968)
# Sequence (P35968 whole entry): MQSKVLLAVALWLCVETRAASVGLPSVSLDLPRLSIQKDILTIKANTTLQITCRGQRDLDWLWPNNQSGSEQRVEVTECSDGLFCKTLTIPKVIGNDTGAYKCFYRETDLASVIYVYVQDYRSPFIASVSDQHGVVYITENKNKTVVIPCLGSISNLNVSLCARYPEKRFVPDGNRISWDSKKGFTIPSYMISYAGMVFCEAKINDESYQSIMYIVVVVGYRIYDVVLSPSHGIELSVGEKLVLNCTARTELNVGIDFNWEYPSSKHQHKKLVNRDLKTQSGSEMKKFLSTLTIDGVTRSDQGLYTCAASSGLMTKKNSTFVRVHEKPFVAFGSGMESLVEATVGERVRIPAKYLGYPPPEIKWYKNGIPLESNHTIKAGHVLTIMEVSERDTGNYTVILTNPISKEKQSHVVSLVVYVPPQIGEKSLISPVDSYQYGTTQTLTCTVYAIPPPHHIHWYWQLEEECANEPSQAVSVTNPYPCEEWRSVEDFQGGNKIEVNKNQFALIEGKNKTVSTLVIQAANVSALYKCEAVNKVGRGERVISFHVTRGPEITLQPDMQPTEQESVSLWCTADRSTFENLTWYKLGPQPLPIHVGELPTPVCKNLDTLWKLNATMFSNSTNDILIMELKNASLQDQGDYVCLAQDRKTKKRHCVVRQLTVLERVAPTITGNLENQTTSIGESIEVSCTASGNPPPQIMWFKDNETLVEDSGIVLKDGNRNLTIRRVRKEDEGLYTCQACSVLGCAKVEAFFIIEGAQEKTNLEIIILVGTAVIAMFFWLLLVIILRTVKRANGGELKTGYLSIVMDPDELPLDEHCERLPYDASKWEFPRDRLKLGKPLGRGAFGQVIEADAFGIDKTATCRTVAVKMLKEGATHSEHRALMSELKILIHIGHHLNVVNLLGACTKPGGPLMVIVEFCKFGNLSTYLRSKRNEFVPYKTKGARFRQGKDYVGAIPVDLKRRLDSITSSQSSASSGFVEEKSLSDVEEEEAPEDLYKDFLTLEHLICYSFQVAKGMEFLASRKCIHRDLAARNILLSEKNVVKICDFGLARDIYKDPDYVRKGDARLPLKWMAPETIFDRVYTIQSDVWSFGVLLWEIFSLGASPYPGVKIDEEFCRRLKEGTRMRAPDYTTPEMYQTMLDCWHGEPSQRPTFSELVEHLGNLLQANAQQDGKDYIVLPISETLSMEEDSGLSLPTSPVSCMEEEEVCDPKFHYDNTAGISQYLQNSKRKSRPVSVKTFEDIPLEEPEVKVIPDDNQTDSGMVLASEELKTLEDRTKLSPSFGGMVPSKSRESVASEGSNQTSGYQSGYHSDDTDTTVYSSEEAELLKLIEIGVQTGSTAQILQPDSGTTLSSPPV
reportedProperty: IC50 (nM)

[
  {
    "compound": "COc1cc2c(Oc3ccc(NC(=O)C(C)c4nnc(-c5ccc(F)cc5)o4)cc3F)ccnc2cc1OCCCN1CCC(C)CC1 (stereo unspecified)",
    "reportedProperty": "IC50",
    "testResult": 40
  }
]

----------
# subjectOfTest: Mast/stem cell growth factor receptor Kit (Homo sapiens, UniProt P10721)
# Sequence (P10721 whole entry, the tested form may be a part): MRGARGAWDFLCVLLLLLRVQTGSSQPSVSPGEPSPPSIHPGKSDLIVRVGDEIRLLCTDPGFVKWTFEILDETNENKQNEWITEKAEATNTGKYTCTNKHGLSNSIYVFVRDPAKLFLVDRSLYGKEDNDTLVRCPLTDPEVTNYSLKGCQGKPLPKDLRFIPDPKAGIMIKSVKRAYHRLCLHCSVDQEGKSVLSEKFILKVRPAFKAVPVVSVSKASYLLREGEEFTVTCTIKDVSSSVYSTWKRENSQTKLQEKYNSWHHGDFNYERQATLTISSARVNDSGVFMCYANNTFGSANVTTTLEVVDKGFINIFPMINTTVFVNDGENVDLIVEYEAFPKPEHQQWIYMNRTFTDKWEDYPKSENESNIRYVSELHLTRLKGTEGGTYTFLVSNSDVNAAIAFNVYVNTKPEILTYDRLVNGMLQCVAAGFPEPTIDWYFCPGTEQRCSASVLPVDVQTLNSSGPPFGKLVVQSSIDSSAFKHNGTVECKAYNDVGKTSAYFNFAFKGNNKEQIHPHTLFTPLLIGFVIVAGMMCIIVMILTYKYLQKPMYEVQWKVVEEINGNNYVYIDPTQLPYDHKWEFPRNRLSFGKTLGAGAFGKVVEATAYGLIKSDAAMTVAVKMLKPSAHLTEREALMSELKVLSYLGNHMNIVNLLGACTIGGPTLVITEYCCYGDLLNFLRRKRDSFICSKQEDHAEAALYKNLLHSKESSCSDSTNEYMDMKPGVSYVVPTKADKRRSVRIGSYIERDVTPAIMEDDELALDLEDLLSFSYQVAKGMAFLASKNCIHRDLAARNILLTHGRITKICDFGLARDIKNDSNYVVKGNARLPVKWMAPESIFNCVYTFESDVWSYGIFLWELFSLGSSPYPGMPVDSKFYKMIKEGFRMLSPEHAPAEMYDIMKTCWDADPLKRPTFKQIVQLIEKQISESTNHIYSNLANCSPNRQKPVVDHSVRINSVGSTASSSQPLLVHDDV
# assayMethodText: Inhibition of human N-terminal GST-tagged c-Kit cytoplasmic domain (544 to end residues) expressed in baculovirus infected Sf21 insect cells using peptide substrate measured after 1 hr by mobility shift assay
pIC50: −log10 of the molar value.

[
  {
    "structure": "COc1cc2c(Oc3ccc(NC(=O)C4(c5nnc(-c6ccc(F)cc6)o5)CC4)cc3F)ccnc2cc1OCCCN1CCCCC1",
    "pIC50": 7.20
  }
]
